System: Geobacillus stearothermophilus
Assay: Percent inhibition against prenyltransferases of Undecaprenyl pyrophosphate synthetase (UPS) at concentration of 125 uM
Measured Property: inhibition (%)

(Q) Name the reported inhibition value associated with the compound C/C(=C\COP(=O)(O)OP(=O)(O)O)CC/C=C(\C)COc1ccc(C(=O)c2ccccc2)cc1
(A) 63

(Q) Then C/C(=C\COP(=O)(O)OP(=O)(O)O)COc1cccc(C(=O)c2ccccc2)c1 ?
(A) 68

(Q) Then C/C(=C\COP(=O)(O)OP(=O)(O)O)COc1ccc(C(=O)c2ccccc2)cc1 ?
(A) 57

(Q) Then C/C(=C\COP(=O)(O)OP(=O)(O)O)CC/C=C(\C)COc1cccc(C(=O)c2ccccc2)c1 ?
(A) 63

---

Test system: Geobacillus stearothermophilus
Test: Percent inhibition against prenyltransferases of Undecaprenyl pyrophosphate synthetase (UPS) at concentration of 16 uM
Measured Property: inhibition (%)

(Q) Report inhibition for C/C(=C\COP(=O)(O)OP(=O)(O)O)CC/C=C(\C)COc1cccc(C(=O)c2ccccc2)c1 tested on Geobacillus stearothermophilus.
(A) 38

(Q) Then C/C(=C\COP(=O)(O)OP(=O)(O)O)COc1cccc(C(=O)c2ccccc2)c1 ?
(A) 12.5

A. C/C(=C\COP(=O)(O)OP(=O)(O)O)CC/C=C(\C)COc1ccc(C(=O)c2ccccc2)cc1
B. C/C(=C\COP(=O)(O)OP(=O)(O)O)COc1ccc(C(=O)c2ccccc2)cc1
(Q) Name the one with the greater inhibition value, either A or B as given. Choose, then provide that item's label.
(A) A
(A: 29%, B: 12.5%)

---

System: Micrococcus luteus
Assay: Percent inhibition against prenyltransferases of hexaprenyl diphosphate synthase (Hex PS) at concentration of 125 uM
Measured Property: inhibition (%)

(Q) Name the reported inhibition value associated with the compound C/C(=C\COP(=O)(O)OP(=O)(O)O)CC/C=C(\C)COc1cccc(C(=O)c2ccccc2)c1
(A) 37

a. C/C(=C\COP(=O)(O)OP(=O)(O)O)COc1ccc(C(=O)c2ccccc2)cc1
b. C/C(=C\COP(=O)(O)OP(=O)(O)O)COc1cccc(C(=O)c2ccccc2)c1
c. C/C(=C\COP(=O)(O)OP(=O)(O)O)CC/C=C(\C)COc1ccc(C(=O)c2ccccc2)cc1
(Q) Ordering criterion: inhibition; begin with the maximum. Enter labels, ranked according to the request.
(A) c, a, b

---

Tested on: Geobacillus stearothermophilus
Experiment: Percent inhibition against prenyltransferases of Undecaprenyl pyrophosphate synthetase (UPS) at concentration of 32 uM
Measured Property: inhibition (%)

(Q) Report inhibition for C/C(=C\COP(=O)(O)OP(=O)(O)O)COc1cccc(C(=O)c2ccccc2)c1 tested on Geobacillus stearothermophilus.
(A) 22.5

(Q) Then C/C(=C\COP(=O)(O)OP(=O)(O)O)CC/C=C(\C)COc1ccc(C(=O)c2ccccc2)cc1 ?
(A) 53

a. C/C(=C\COP(=O)(O)OP(=O)(O)O)CC/C=C(\C)COc1cccc(C(=O)c2ccccc2)c1
b. C/C(=C\COP(=O)(O)OP(=O)(O)O)COc1ccc(C(=O)c2ccccc2)cc1
(Q) Just tell me: smaller inhibition value, a or b ? Choose, then provide that item's label.
(A) b
(b: 17.5%, a: 58%)

---

Test system: Micrococcus luteus
Experiment: Percent inhibition against prenyltransferases of hexaprenyl diphosphate synthase (Hex PS) at concentration of 250 uM
Measured Property: inhibition (%)

1. C/C(=C\COP(=O)(O)OP(=O)(O)O)CC/C=C(\C)COc1ccc(C(=O)c2ccccc2)cc1
2. C/C(=C\COP(=O)(O)OP(=O)(O)O)COc1ccc(C(=O)c2ccccc2)cc1
3. C/C(=C\COP(=O)(O)OP(=O)(O)O)COc1cccc(C(=O)c2ccccc2)c1
(Q) Rank entries according to their inhibition, from the largest number down. Enter labels, ranked according to the request.
(A) 1, 2, 3

---

Test system: Micrococcus luteus
Test: Percent inhibition against prenyltransferases of hexaprenyl diphosphate synthase (Hex PS) at concentration of 50 uM
Measured Property: inhibition (%)

(Q) Report inhibition for C/C(=C\COP(=O)(O)OP(=O)(O)O)CC/C=C(\C)COc1cccc(C(=O)c2ccccc2)c1 tested on Micrococcus luteus.
(A) 9.2

I. C/C(=C\COP(=O)(O)OP(=O)(O)O)COc1cccc(C(=O)c2ccccc2)c1
II. C/C(=C\COP(=O)(O)OP(=O)(O)O)COc1ccc(C(=O)c2ccccc2)cc1
III. C/C(=C\COP(=O)(O)OP(=O)(O)O)CC/C=C(\C)COc1ccc(C(=O)c2ccccc2)cc1
(Q) Give the ascending ranking of the items by reported inhibition. Enter labels, ranked according to the request.
(A) I, II, III
(I: 3.1%, II: 8.8%, III: 14.4%)

---

Test system: Farnesyl pyrophosphate synthase (Geobacillus stearothermophilus)
Experiment: Percent inhibition against prenyltransferases of farnesyl diphosphate synthase (FPS) at concentration of 125 uM
Measured Property: inhibition (%)

(Q) Name the reported inhibition value associated with the compound C/C(=C\COP(=O)(O)OP(=O)(O)O)CC/C=C(\C)COc1cccc(C(=O)c2ccccc2)c1
(A) 94.9

a. C/C(=C\COP(=O)(O)OP(=O)(O)O)COc1cccc(C(=O)c2ccccc2)c1
b. C/C(=C\COP(=O)(O)OP(=O)(O)O)CC/C=C(\C)COc1ccc(C(=O)c2ccccc2)cc1
c. C/C(=C\COP(=O)(O)OP(=O)(O)O)COc1ccc(C(=O)c2ccccc2)cc1
(Q) Ordering criterion: inhibition; begin with the maximum. Enter labels, ranked according to the request.
(A) b, c, a

---

Assay: Activity as substrate for FPS relative to control
Assay type: functional
Relative activity listing for selected compounds.
# respond with the number and nothing more

(Q) Name the reported Relative activity value associated with the compound C/C(=C\COP(=O)(O)OP(=O)(O)O)CC/C=C(\C)COc1ccc(C(=O)c2ccccc2)cc1
(A) 0.78

(Q) Then C/C(=C\COP(=O)(O)OP(=O)(O)O)COc1cccc(C(=O)c2ccccc2)c1 ?
(A) 0.22

(Q) Then C/C(=C\COP(=O)(O)OP(=O)(O)O)CC/C=C(\C)COc1cccc(C(=O)c2ccccc2)c1 ?
(A) 1.83

Here is another compound to look at.
(Q) Name the reported Relative activity value associated with the compound C/C(=C\COP(=O)(O)OP(=O)(O)O)COc1ccc(C(=O)c2ccccc2)cc1
(A) 0.06
